Experiment: In vivo pharmacokinetic study of plasma and brain tissue
Conditions: mouse; Plasma, mice, 1 mg/kg, intravenous
QUANTITY KIND: AUC(0-t)
Give your result as the value with the unit written after it.

INPUT: # get_value(readout='AUC(0-t)', item= CN(C)c1ccc(-c2ccc(-c3nc4ccc(NCCOCCOc5ccc6c(c5)CN(C5CCC(=O)NC5=O)C6=O)cc4s3)cc2)cn1 (stereo not shown) )
OUTPUT: 379 ng·h/mL

###

Target: heparin-induced aggregated Tau (aTau) (Homo sapiens (Human))
Assay: PBB5 competition assay
Type: binding
Details: competition assay with PBB5
# Bmax per entry
Write down the numeric answer in % and omit the unit.

Consider the following illustrative entries.
[
  {
    "COMPOUND": "CN(C)c1ccc2nc(-c3ccc(-c4ccc(NCCOCCOCCOCCOCCOCCOc5ccc6c(c5)CN(C5CCC(=O)NC5=O)C6=O)nc4)cc3)sc2c1 (stereo not drawn)",
    "VAL": 80
  },
  {
    "COMPOUND": "CN(C)c1ccc(-c2ccc(-c3nc4ccc(NCCOCCOc5ccc6c(c5)C(=O)N(C5CCC(=O)NC5=O)C6=O)cc4s3)cc2)cn1 (stereo not drawn)",
    "VAL": 69
  },
  {
    "COMPOUND": "CN(C)c1ccc(-c2ccc(-c3nc4ccc(NCCOCCOc5ccc6c(c5)CN(C5CCC(=O)NC5=O)C6=O)cc4s3)cc2)cn1 (stereo not drawn)",
    "VAL": 64
  },
  {
    "COMPOUND": "CN(C)c1ccc2nc(-c3ccc(-c4ccc(NCCOCCOCCOCCOCCOCCOc5ccc6c(c5)C(=O)N(C5CCC(=O)NC5=O)C6=O)nc4)cc3)sc2c1 (stereo not drawn)",
    "VAL": 96
  }
]

Pending compound:
INPUT: Short answer please: Bmax, heparin-induced aggregated Tau (aTau) (Homo sapiens (Human)), entry CN(C)c1ccc(-c2ccc(-c3nc4ccc(NCCOCCOCCOCCOCCOCCOc5ccc6c(c5)CN(C5CCC(=O)NC5=O)C6=O)cc4s3)cc2)cn1 (stereo not drawn)
OUTPUT: 59

###

compounds and their reported pIC50
Molecular target: heparin-induced aggregated Tau (aTau) (Homo sapiens (Human), UniProt P10636)
Sequence (P10636 other isoform, or with tags, fused parts or gaps): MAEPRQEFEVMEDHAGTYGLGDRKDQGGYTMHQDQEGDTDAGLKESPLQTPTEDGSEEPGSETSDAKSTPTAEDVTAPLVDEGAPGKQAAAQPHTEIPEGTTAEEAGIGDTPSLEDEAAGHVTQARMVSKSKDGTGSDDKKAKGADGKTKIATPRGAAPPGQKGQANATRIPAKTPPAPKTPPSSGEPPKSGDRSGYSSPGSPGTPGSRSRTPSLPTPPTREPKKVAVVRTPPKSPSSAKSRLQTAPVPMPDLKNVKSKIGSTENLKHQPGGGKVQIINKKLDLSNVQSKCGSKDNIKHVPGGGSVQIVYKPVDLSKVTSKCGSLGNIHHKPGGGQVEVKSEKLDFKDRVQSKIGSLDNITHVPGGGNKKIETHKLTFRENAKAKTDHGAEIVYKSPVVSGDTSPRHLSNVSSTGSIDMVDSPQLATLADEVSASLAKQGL
Assay: PBB5 competition assay
Settings: 0.12 μM aTau, 0.1 μM PBB5, 37° C., 1 hour
pIC50 field: float, defined as -log10 of concentration (mol/L).

[
  {
    "COMPOUND": "CN(C)c1ccc(-c2ccc(-c3cn4cc(OCCOCCN5C(=O)CCC(N6C(=O)c7ccc(O)cc7C6=O)C5=O)ccc4n3)cc2)c(F)n1 (centres unmarked)",
    "pIC50": 5.65
  }
]

Now look at this entry.
INPUT: Returns the measured pIC50 for the input compound. Input: CN(C)c1ccc2nc(-c3ccc(-c4ccc(NCCOCCN5C(=O)CCC(N6C(=O)c7ccc(O)cc7C6=O)C5=O)nc4)cc3)sc2c1 (centres unmarked)
OUTPUT: 6.00

###

Assay: In vivo pharmacokinetic study of plasma and brain tissue
Details: mouse; Brain, mice, 1 mg/kg, intravenous
QUANTITY KIND: AUC(0-t) (ng·h/mL)
Reply with just the number (in ng·h/mL).

INPUT: State the recorded AUC(0-t) for this entry: CN(C)c1ccc(-c2ccc(-c3nc4ccc(NCCOCCOc5ccc6c(c5)CN(C5CCC(=O)NC5=O)C6=O)cc4s3)cc2)cn1 (stereo not shown)
OUTPUT: 117

All values here come from patent US11642413B2.
